- system-name: Aldehyde dehydrogenase, mitochondrial (Homo sapiens)
- protocol-text: qHTS for Inhibitors of the Aldehyde Dehydrogenase Family (ALDH2) Primary screen (AID 2061308); also: nearly all actives have a fitted effect of over 55% in size
- run-parameters: ALDH2 enzyme inhibition qHTS, 1536-well; series mostly up to 56 µM
Records with an inconclusive call do not appear. Active and inactive are the calls of the source. Calls follow the shape of the dose curve; as a rule, active = well fitted inhibition curve with a large enough effect; inconclusive = small, poorly fitted or top-dose-only effect; inactive = flat fitted curve, though single readings scatter.
measured-quantity: activity change, negative = inhibition

Here's what some known entries look like.
[
  {
    "compound": "CCOC(=O)c1cncn1C(C)c1ccccc1 (configuration not stated)",
    "activity change, negative = inhibition": "inactive"
  },
  {
    "compound": "CC(C)=C1CC[C@]23CO[C@H](C2)[C@@](O)(C(=O)O)CCC13 (some centres not stated)",
    "activity change, negative = inhibition": "inactive"
  },
  {
    "compound": "C=CCN1CC[C@]23c4c5ccc(O)c4O[C@H]2[C@@H](O)CC[C@@]3(O)[C@H]1C5",
    "activity change, negative = inhibition": "inactive"
  },
  {
    "compound": "Fc1cc(F)c2c(c1)C1C=CCC1C(c1cccnc1)N2 (configuration not stated)",
    "activity change, negative = inhibition": "inactive"
  },
  {
    "compound": "CCOc1ccc(CCNC(=O)c2cc3ccccc3n2Cc2cccc(C)c2)cc1OCC",
    "activity change, negative = inhibition": "inactive"
  }
]

# query: activity change, negative = inhibition | item COCC(C(=O)OC1CC2CCC(C1)N2C)c1ccccc1 (configuration not stated) | system: Aldehyde dehydrogenase, mitochondrial (Homo sapiens)
inactive

# query: activity change, negative = inhibition | item CC1=C(C(=O)Nc2nccs2)C(c2ccccc2Br)N=C(Nc2nc3ccccc3o2)N1 (configuration not stated) | system: Aldehyde dehydrogenase, mitochondrial (Homo sapiens)
inactive

# query: activity change, negative = inhibition | item C[C@H]1O[C@@H](O[C@H]2[C@@H](O)C[C@H](O[C@H]3[C@@H](O)C[C@H](O[C@H]4CC[C@@]5(C)[C@H](CC[C@@H]6[C@@H]5CC[C@]5(C)[C@@H](C7=CC(=O)OC7)CC[C@]65O)C4)O[C@@H]3C)O[C@@H]2C)C[C@H](O)[C@@H]1O | system: Aldehyde dehydrogenase, mitochondrial (Homo sapiens)
inactive

# query: activity change, negative = inhibition | item CCC1C2CC3C4N(C)c5ccccc5C45CC(C2C5O)N3C1O (configuration not stated) | system: Aldehyde dehydrogenase, mitochondrial (Homo sapiens)
inactive

# query: activity change, negative = inhibition | item Cc1cccc(NC(=O)NC2N=C(c3ccccc3)c3ccccc3N(CC(=O)c3ccccc3C)C2=O)c1 (configuration not stated) | system: Aldehyde dehydrogenase, mitochondrial (Homo sapiens)
inactive

# query: activity change, negative = inhibition | item O=C(Oc1ccc([N+](=O)[O-])cc1)N1CCC(C(O)(c2ccc3c(c2)OCO3)c2ccc3c(c2)OCO3)CC1 | system: Aldehyde dehydrogenase, mitochondrial (Homo sapiens)
inactive

# query: activity change, negative = inhibition | item Cn1cc(P(=S)(c2ccccc2)c2ccccc2)c2ccccc21 | system: Aldehyde dehydrogenase, mitochondrial (Homo sapiens)
inactive

# query: activity change, negative = inhibition | item Oc1ccc2c3c1O[C@H]1c4[nH]c5c(N=C=S)cccc5c4C[C@@]4(O)[C@@H](C2)N(CC2CC2)CC[C@]314 | system: Aldehyde dehydrogenase, mitochondrial (Homo sapiens)
inactive

# query: activity change, negative = inhibition | item COC1CC(O[C@H]2CC[C@@]3(C)C(=CCC4C3C(O)[C@@H](O)[C@]3(C)[C@@H](C(C)=O)CC[C@]43O)C2)OC(C)C1OC1CC(OC)C(OC2OC(C)C(O)C(O)C2O)C(C)O1 (some centres not stated) | system: Aldehyde dehydrogenase, mitochondrial (Homo sapiens)
inactive

# query: activity change, negative = inhibition | item COC1C(O)C(OC2CCC3(C=O)C(CCC4C3CCC3(C)C(C5=CC(=O)OC5)CCC43O)C2)OC(C)C1OC1OC(CO)C(O)C(O)C1O (configuration not stated) | system: Aldehyde dehydrogenase, mitochondrial (Homo sapiens)
inactive

# query: activity change, negative = inhibition | item COC(=O)C1(C)CCC(O)C2(C)c3c(O)cc(C(C)C)cc3C(O)C(OC(C)=O)C12 (configuration not stated) | system: Aldehyde dehydrogenase, mitochondrial (Homo sapiens)
inactive

# query: activity change, negative = inhibition | item CCOc1ccc(CCNC(=O)c2ccccc2)cc1OCC | system: Aldehyde dehydrogenase, mitochondrial (Homo sapiens)
inactive
